- Tested on: NCI-H522 lung
- assay comment: NCI tumour cell line growth inhibition, 48 h; in the data active means GI50 below about 0.43 µM; inactive means the rest
API: response.call in Y = active, N = inactive

molecule	qualitative label
COC(=O)[C@H](C[C@H](Cc1ccccc1)NC(=O)c1csc([C@@H](C[C@H](C(C)C)N(C)C(=O)[C@@H](NC(=O)[C@H]2CCCCN2C)C(C)C)OC(C)=O)n1)NC(=O)OCc1ccccc1	Y

# lookup: test call for "Cc1ccc(-c2cn3ccnc3c(-c3ccc(Cl)cc3)n2)cc1"
N

# lookup: test call for CC(CCC(=O)O)[C@H]1CCC2[C@@H]3CC[C@@H]4CC(O)CC[C@]4(C)C3CC[C@@]21C (stereo partly drawn)
N

# lookup: test call for CCN(CC)CC(C)Nc1ccc([N+](=O)[O-])c2sc3ccccc3c(=O)c12 (stereo not drawn)
N

# lookup: test call for "Cn1cccc1-c1cc(-c2cccs2)nc(N)c1C#N"
N

# lookup: test call for "COc1ccc2c(c1)cn1c3ccc(O)cc3nc(N)c21"
Y

# lookup: test call for "COc1ccc2nc(-c3ccc(-c4noc(-c5cc(OC)c(OC)c(OC)c5)n4)cc3)[nH]c2c1"
N

# lookup: test call for "COc1ccc(-c2nn3c(-c4cc(F)c(Cl)cc4Cl)nnc3s2)cc1"
N

---

- Tested on: LOX IMVI melanoma
- assay comment: NCI tumour cell line growth inhibition, 48 h
reported endpoint: TGI

                                   compound   reading
0  CS(=O)(=O)N1CC(CCl)c2ccc([N+](=O)[O-])cc21 (centres undefined)  > 100 µM
1  CCN(CC)CC(C)Nc1ccc([N+](=O)[O-])c2sc3ccccc3c(=O)c12 (centres undefined)   2.39 µM
2        N=c1oc2cc(O)ccc2cc1C(=O)NCc1ccccc1  > 100 µM

TGI measured on "Nc1ncnc2ccc(Sc3ccc4ncnc(N)c4c3)cc12" = > 100 µM

---

- Tested on: RXF 393 renal
- assay comment: NCI tumour cell line growth inhibition, 48 h
Respond with satisfied for TGI values of 20 µM and above, not satisfied for values below.

Please tell me: is the compound "Cn1cccc1-c1cc(-c2cccs2)nc(N)c1C#N" at or over 20 µM in terms of TGI?
satisfied

Please tell me: is the compound "COc1cc(C(=O)C/C(CCCC(=O)Nc2ccccc2[N+](=O)[O-])=N/NC(=O)c2cc3ccccc3cc2O)ccc1O" at or over 20 µM in terms of TGI?
satisfied

Please tell me: is the compound CCOC(=O)C(=[N+]=[N-])C(=O)C1(C(=O)OCC)CCN(C(=O)c2ccccc2)C1=O (stereo not given) at or over 20 µM in terms of TGI?
satisfied

Please tell me: is the compound "O=C(N/C(=C\c1ccc2c(c1)OCO2)c1nc2ccccc2[nH]1)c1ccccc1" at or over 20 µM in terms of TGI?
satisfied

Please tell me: is the compound CCCC(C)c1cc(Cc2cc(Cl)cc(Cl)c2O)c(O)c(Cc2cc(Cl)cc(Cl)c2O)c1 (stereo not given) at or over 20 µM in terms of TGI?
not satisfied

Please tell me: is the compound "COc1ccc2c(C)cc(N/N=C(\C)C=O)nc2c1" at or over 20 µM in terms of TGI?
satisfied

Please tell me: is the compound "Cn1cnc(CCc2ccccc2)n1" at or over 20 µM in terms of TGI?
satisfied

Please tell me: is the compound "CCOC(=O)c1ccc(N=C2C(=S)N(c3ccc(C(=O)OCC)cc3)C(=N)N2/N=C/c2ccccc2)cc1" at or over 20 µM in terms of TGI?
not satisfied

Please tell me: is the compound "COc1ccc2c(c1)cn1c3ccc(O)cc3nc(N)c21" at or over 20 µM in terms of TGI?
not satisfied
